The measured values listed here are drawn from paper PMC4081100.

SYSTEM TESTED: GST-ANAC055(1-171) (Arabidopsis thaliana, UniProt Q9LDY8 1-171)
Sequence: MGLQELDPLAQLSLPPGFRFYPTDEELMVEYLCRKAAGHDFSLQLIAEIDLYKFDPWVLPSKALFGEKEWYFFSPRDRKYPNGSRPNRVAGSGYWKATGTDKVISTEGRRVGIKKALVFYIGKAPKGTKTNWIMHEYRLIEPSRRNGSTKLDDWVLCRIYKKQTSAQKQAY
RUN DESCRIPTION: universal protein binding microarray (PBM); high values mean tight binding
ASSAY CONTEXT: protein: recombinant; tags: GST; chain copies: 2; dsDNA, one strand shown
Field: label. Allowed values: yes (1) (binding signal < 0.2 E-score) or no (0) (binding signal >= 0.2 E-score).

GTTGGTCA
yes (1)

Below: the item to evaluate.
QUERY: Strictly below 0.2 E-score in binding signal? ACCTTTCC
RESULT: yes (1)

====

Listing of entries alongside the reported binding signal.
SYSTEM TESTED: GST-ANAC092(1-176) (Arabidopsis thaliana, UniProt Q9FKA0 1-176)
Sequence: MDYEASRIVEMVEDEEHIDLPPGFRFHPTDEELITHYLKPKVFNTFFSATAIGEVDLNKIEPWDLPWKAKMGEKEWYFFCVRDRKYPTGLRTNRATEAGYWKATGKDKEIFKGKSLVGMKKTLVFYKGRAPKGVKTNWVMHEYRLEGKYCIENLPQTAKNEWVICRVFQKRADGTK
RUN DESCRIPTION: universal protein binding microarray (PBM); high values mean tight binding
ASSAY CONTEXT: protein: recombinant; tags: GST; chain copies: 2; dsDNA, one strand shown
Output spec: scalar in E-score, unitless text.

Known binding signal results, listed for orientation:
TCACGCCA
0.436
ACGGAAGC
0.299
ATACGCAA
0.485
CGTGGTCA
0.128
CACGTCAA
0.444

The value of binding signal measured for the sequence CTTTGACC turned out to be 0.051

For reference, reported binding signal for GTCACGCA stands at 0.319

TTAAGTAA has a reported binding signal of 0.236

====

SYSTEM TESTED: GST-ANAC092(1-176) (Arabidopsis thaliana, UniProt Q9FKA0 1-176)
Sequence: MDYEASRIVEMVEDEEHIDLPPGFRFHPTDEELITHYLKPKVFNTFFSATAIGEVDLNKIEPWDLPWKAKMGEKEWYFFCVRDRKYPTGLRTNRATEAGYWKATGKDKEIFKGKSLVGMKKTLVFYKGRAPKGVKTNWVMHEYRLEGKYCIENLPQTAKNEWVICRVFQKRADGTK
RUN DESCRIPTION: universal protein binding microarray (PBM); high values mean tight binding
ASSAY CONTEXT: protein: recombinant; tags: GST; chain copies: 2; dsDNA, one strand shown
Listing of recorded binding signal by entry.
Field format: number, assumed E-score, no unit text.

Guide cases for binding signal, answers given:
TTACGAAA
0.396
ACACACGC
0.37

Measured binding signal, AAGGGAAA : 0.195

For this sequence ( AAGTAAAG ), measured binding signal is 0.275

Recorded binding signal (sequence ACGCAACA ): 0.473

GTACGCAA yielded binding signal of 0.482

Data point: AATTCCGT ; binding signal = 0.274

====

SYSTEM TESTED: GST-NST2(1-184) (Arabidopsis thaliana, UniProt Q9M274 1-184)
Sequence: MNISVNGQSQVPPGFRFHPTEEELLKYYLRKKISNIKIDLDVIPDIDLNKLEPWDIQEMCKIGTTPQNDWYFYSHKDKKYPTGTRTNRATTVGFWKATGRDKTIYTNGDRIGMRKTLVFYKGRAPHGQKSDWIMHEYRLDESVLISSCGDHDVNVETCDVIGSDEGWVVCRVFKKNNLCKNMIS
RUN DESCRIPTION: universal protein binding microarray (PBM); transcription factors of Arabidopsis thaliana; high values mean tight binding
ASSAY CONTEXT: protein: recombinant; tags: GST; chain copies: 2; dsDNA, one strand shown
ASSAY ENDPOINT: binding signal (E-score)
The reply should be a number in E-score, with the unit left off.

CTTTACGC
0.193
TAGAGTAA
0.216
GAAGTAAC
0.301
CTTGCGTC
0.106
AGCGTGTA
0.22

Lab note: measured binding signal of CACTCAAC was 0.237

// binding signal lookup, sequence = ACACGCAA , result: 0.47

// binding signal value for AAGCAAAG : 0.278

TGGCGTAA yielded binding signal of 0.346

Recorded result, AATTACGT , binding signal: 0.352

Recorded binding signal (sequence TTCGTCAA ): 0.0662

binding signal recorded for this sequence, AGAAGGAA , is 0.177

So, GTACGTCA ? Its binding signal was 0.244
